assay: solubility of matrix compounds for producing devices from solution; type: physicochemical; settings: compounds dissolved in toluene or chlorobenzene for spin coating of the emission layer (matrix with 5% by weight emitter)

>  <MOL>
c1ccc(-c2cc(-c3ccccc3)cc(-c3cccc(-c4c5ccccc5c(-c5cccc6c5ccc5cc7ccccc7cc56)c5ccccc45)c3)c2)cc1

>  <solubility>
improved solubility

$$$$
>  <MOL>
c1ccc(-c2c3ccccc3c(-c3cccc4c3ccc3cc5ccccc5cc34)c3ccccc23)cc1

>  <solubility>
poor solubility

$$$$
>  <MOL>
c1ccc(-c2cc(-c3ccccc3)cc(-c3c4ccccc4c(-c4cccc5c4ccc4cc6ccccc6cc45)c4ccccc34)c2)cc1

>  <solubility>
improved solubility

$$$$
>  <MOL>
c1ccc(-c2cccc(-c3c4ccccc4c(-c4cccc5c4ccc4cc6ccccc6cc45)c4ccccc34)c2)cc1

>  <solubility>
poor solubility

$$$$
